- system tested: Native Aequorin (Aequorea victoria)
- Construct: His tag (from the vector name piP-His-HE); made in house
- Sequence (P02592 9-196 limits assumed): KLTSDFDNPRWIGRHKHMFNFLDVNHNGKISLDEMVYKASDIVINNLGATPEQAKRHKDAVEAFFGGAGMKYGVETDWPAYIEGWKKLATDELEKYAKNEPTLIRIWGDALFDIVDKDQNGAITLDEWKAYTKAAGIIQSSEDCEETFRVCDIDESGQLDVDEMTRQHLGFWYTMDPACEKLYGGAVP
- assay protocol: Substrate specificity: semi-synthetic aequorin from coelenterazine analogue and purified apoaequorin
- Assay type: biochemical
- cond: CTZ = 100, 50 mM calcium solution
- Protocol: AM20 was prepared to examine the properties. Specifically, 1 ml of 30 mM Tris-HCl (pH 7.6) containing 10 mM EDTA was mixed with 2-mercaptoethanol (1 μl) and a solution of the coelenterazine analogue (1 μg/μl) dissolved in ethanol. Then, 10 μl of the purified apoaequorin or recombinant mutant apoaequorin AM20 was added to the mixture, which was allowed to stand on ice (4° C.) for 5 hours to perform the regeneration reaction. […] The half decay time was determined from the luminescence patterns.
Exercise: for every item that follows, state its recorded Relative Luminescence Intensity.

# input Return Relative Luminescence Intensity (reported value) for this compound: Cc1cccc(Cc2nc3c(Cc4ccccc4)[nH]c(-c4ccc(O)cc4)cn-3c2=O)c1
# output 35.0%

# input Return Relative Luminescence Intensity (reported value) for this compound: Oc1ccc(-c2cn3c(O)c(Cc4ccccc4)nc3c(Cc3ccccc3)n2)cc1
# output 87.9%

# input Return Relative Luminescence Intensity (reported value) for this compound: Cc1ccc(Cc2nc3c(Cc4ccccc4)[nH]c(-c4ccc(O)cc4)cn-3c2=O)cc1
# output 5.8%

# input Return Relative Luminescence Intensity (reported value) for this compound: O=c1c(Cc2ccc(C(F)(F)F)cc2)nc2c(Cc3ccccc3)[nH]c(-c3ccc(O)cc3)cn1-2
# output 6.3%

# input Return Relative Luminescence Intensity (reported value) for this compound: COc1cccc(Cc2nc3c(Cc4ccccc4)[nH]c(-c4ccc(O)cc4)cn-3c2=O)c1
# output 64.9%

---

- system tested: Native Aequorin (Aequorea victoria)
- Construct: His tag (from the vector name piP-His-HE); made in house
- assay protocol: Substrate specificity: semi-synthetic aequorin from coelenterazine analogue and purified apoaequorin
- Format: biochemical
Please use Criterion met for Half Decay Time under 0.8 s and Criterion not met for everything else, ties included.

# input Does this compound meet the criterion Half Decay Time < 0.8 s? O=c1c(Cc2cccc(O)c2)nc2c(Cc3ccccc3)[nH]c(-c3ccc(O)cc3)cn1-2
# output Criterion met

# input Does this compound meet the criterion Half Decay Time < 0.8 s? COc1ccc(Cc2nc3c(Cc4ccccc4)[nH]c(-c4ccc(O)cc4)cn-3c2=O)cc1
# output Criterion not met

# input Does this compound meet the criterion Half Decay Time < 0.8 s? Oc1ccc(-c2cn3c(O)c(Cc4ccccc4)nc3c(Cc3ccccc3)n2)cc1
# output Criterion met

# input Does this compound meet the criterion Half Decay Time < 0.8 s? Cc1ccc(Cc2nc3c(Cc4ccccc4)[nH]c(-c4ccc(O)cc4)cn-3c2=O)cc1
# output Criterion not met

# input Does this compound meet the criterion Half Decay Time < 0.8 s? Cc1cccc(Cc2nc3c(Cc4ccccc4)[nH]c(-c4ccc(O)cc4)cn-3c2=O)c1
# output Criterion met

# input Does this compound meet the criterion Half Decay Time < 0.8 s? O=c1c(Cc2ccc(C(F)(F)F)cc2)nc2c(Cc3ccccc3)[nH]c(-c3ccc(O)cc3)cn1-2
# output Criterion not met

# input Does this compound meet the criterion Half Decay Time < 0.8 s? COc1cccc(Cc2nc3c(Cc4ccccc4)[nH]c(-c4ccc(O)cc4)cn-3c2=O)c1
# output Criterion met

# input Does this compound meet the criterion Half Decay Time < 0.8 s? O=c1c(Cc2ccccc2)nc2c(CC3CCCC3)[nH]c(-c3ccc(O)cc3)cn1-2
# output Criterion met

---

- system tested: Mutant Aequorin AM20 (Aequorea victoria, UniProt P02592, H34Q/K37A/N33D/S39T/V32K)
- Construct: OmpA secretory signal peptide (N); histidine tag (N); made in house; host or cells: Escherichia coli strain WA802
- Sequence (P02592 9-196 V32K/N33D/H34Q/K37A/S39T): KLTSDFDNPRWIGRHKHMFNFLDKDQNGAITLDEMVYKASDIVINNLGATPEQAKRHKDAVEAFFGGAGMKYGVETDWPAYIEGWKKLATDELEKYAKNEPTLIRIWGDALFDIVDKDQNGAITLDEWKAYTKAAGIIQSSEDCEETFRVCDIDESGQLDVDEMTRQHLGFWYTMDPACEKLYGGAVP
- Type: biochemical
- cond: Mutant Aequorin AM20; CTZ = 100
Exercise: for every item that follows, state its recorded Luminescence Intensity for 60 Secs.
Answer shape: numeric part, then the unit.

# input Return Luminescence Intensity for 60 Secs (reported value) for this compound: Oc1ccc(Cc2nc3c(Cc4ccccc4)nc(-c4ccc(O)cc4)cn3c2O)cc1
# output 100%

# input Return Luminescence Intensity for 60 Secs (reported value) for this compound: O=c1c(Cc2ccc(C(F)(F)F)cc2)nc2c(Cc3ccccc3)[nH]c(-c3ccc(O)cc3)cn1-2
# output 18.6%

# input Return Luminescence Intensity for 60 Secs (reported value) for this compound: Oc1ccc(-c2cn3c(O)c(Cc4ccccc4)nc3c(Cc3ccccc3)n2)cc1
# output 45.4%

# input Return Luminescence Intensity for 60 Secs (reported value) for this compound: COc1ccc(Cc2nc3c(Cc4ccccc4)[nH]c(-c4ccc(O)cc4)cn-3c2=O)cc1
# output 35.6%

# input Return Luminescence Intensity for 60 Secs (reported value) for this compound: Cc1ccc(Cc2nc3c(Cc4ccccc4)[nH]c(-c4ccc(O)cc4)cn-3c2=O)cc1
# output 15.4%

# input Return Luminescence Intensity for 60 Secs (reported value) for this compound: Cc1cccc(Cc2nc3c(Cc4ccccc4)[nH]c(-c4ccc(O)cc4)cn-3c2=O)c1
# output 35.5%

# input Return Luminescence Intensity for 60 Secs (reported value) for this compound: COc1cccc(Cc2nc3c(Cc4ccccc4)[nH]c(-c4ccc(O)cc4)cn-3c2=O)c1
# output 25.0%

# input Return Luminescence Intensity for 60 Secs (reported value) for this compound: O=c1c(Cc2cccc(O)c2)nc2c(Cc3ccccc3)[nH]c(-c3ccc(O)cc3)cn1-2
# output 9.2%

# input Return Luminescence Intensity for 60 Secs (reported value) for this compound: O=c1c(Cc2ccccc2)nc2c(CC3CCCC3)[nH]c(-c3ccc(O)cc3)cn1-2
# output 7.6%

---

- system tested: Mutant Aequorin AM20 (Aequorea victoria, UniProt P02592, H34Q/K37A/N33D/S39T/V32K)
- Construct: OmpA secretory signal peptide (N); histidine tag (N); made in house; host or cells: Escherichia coli strain WA802
- Type: biochemical
- cond: Mutant Aequorin AM20; CTZ = 100; 50 mM calcium solution
assay metric: Relative Luminescence Intensity

# input Return Relative Luminescence Intensity (reported value) for this compound: COc1cccc(Cc2nc3c(Cc4ccccc4)[nH]c(-c4ccc(O)cc4)cn-3c2=O)c1
# output 266%

# input Return Relative Luminescence Intensity (reported value) for this compound: Cc1cccc(Cc2nc3c(Cc4ccccc4)[nH]c(-c4ccc(O)cc4)cn-3c2=O)c1
# output 125%

# input Return Relative Luminescence Intensity (reported value) for this compound: O=c1c(Cc2cccc(O)c2)nc2c(Cc3ccccc3)[nH]c(-c3ccc(O)cc3)cn1-2
# output 224%

# input Return Relative Luminescence Intensity (reported value) for this compound: Oc1ccc(-c2cn3c(O)c(Cc4ccccc4)nc3c(Cc3ccccc3)n2)cc1
# output 220%

# input Return Relative Luminescence Intensity (reported value) for this compound: Oc1ccc(Cc2nc3c(Cc4ccccc4)nc(-c4ccc(O)cc4)cn3c2O)cc1
# output 100%

---

- system tested: Mutant Aequorin AM20 (Aequorea victoria, UniProt P02592, H34Q/K37A/N33D/S39T/V32K)
- Construct: OmpA secretory signal peptide (N); histidine tag (N); made in house; host or cells: Escherichia coli strain WA802
- Type: biochemical
- cond: Mutant Aequorin AM20
Exercise: for every item that follows, state its recorded Half Decay Time.
I only need the number, in s, no unit after it.

# input Return Half Decay Time (reported value) for this molecule: Oc1ccc(Cc2nc3c(Cc4ccccc4)nc(-c4ccc(O)cc4)cn3c2O)cc1
# output 14.12

# input Return Half Decay Time (reported value) for this molecule: Cc1cccc(Cc2nc3c(Cc4ccccc4)[nH]c(-c4ccc(O)cc4)cn-3c2=O)c1
# output 3.69

# input Return Half Decay Time (reported value) for this molecule: O=c1c(Cc2ccccc2)nc2c(CC3CCCC3)[nH]c(-c3ccc(O)cc3)cn1-2
# output 0.61

# input Return Half Decay Time (reported value) for this molecule: COc1ccc(Cc2nc3c(Cc4ccccc4)[nH]c(-c4ccc(O)cc4)cn-3c2=O)cc1
# output 18.35

# input Return Half Decay Time (reported value) for this molecule: O=c1c(Cc2cccc(O)c2)nc2c(Cc3ccccc3)[nH]c(-c3ccc(O)cc3)cn1-2
# output 0.66

# input Return Half Decay Time (reported value) for this molecule: Oc1ccc(-c2cn3c(O)c(Cc4ccccc4)nc3c(Cc3ccccc3)n2)cc1
# output 2.98

# input Return Half Decay Time (reported value) for this molecule: COc1cccc(Cc2nc3c(Cc4ccccc4)[nH]c(-c4ccc(O)cc4)cn-3c2=O)c1
# output 1.43

---

- system tested: Mutant Aequorin AM20 (Aequorea victoria, UniProt P02592, H34Q/K37A/N33D/S39T/V32K)
- Construct: OmpA secretory signal peptide (N); histidine tag (N); made in house; host or cells: Escherichia coli strain WA802
- Assay type: biochemical
- cond: Mutant Aequorin AM20; CTZ = 100; 50 mM calcium solution
assay metric: Relative Luminescence Intensity (%)
I only need the number, in %, no unit after it.

# input Fill in Relative Luminescence Intensity for COc1ccc(Cc2nc3c(Cc4ccccc4)[nH]c(-c4ccc(O)cc4)cn-3c2=O)cc1 [meo-CTZ, meo-coelenterazine] tested with Mutant Aequorin AM20 (Aequorea victoria, UniProt P02592, H34Q/K37A/N33D/S39T/V32K).
# output 26.6

# input Fill in Relative Luminescence Intensity for O=c1c(Cc2ccc(C(F)(F)F)cc2)nc2c(Cc3ccccc3)[nH]c(-c3ccc(O)cc3)cn1-2 [cf3-CTZ, cf3-coelenterazine] tested with Mutant Aequorin AM20 (Aequorea victoria, UniProt P02592, H34Q/K37A/N33D/S39T/V32K).
# output 7.5

# input Fill in Relative Luminescence Intensity for Cc1ccc(Cc2nc3c(Cc4ccccc4)[nH]c(-c4ccc(O)cc4)cn-3c2=O)cc1 [me-CTZ, me-coelenterazine] tested with Mutant Aequorin AM20 (Aequorea victoria, UniProt P02592, H34Q/K37A/N33D/S39T/V32K).
# output 6.8

# input Fill in Relative Luminescence Intensity for O=c1c(Cc2ccccc2)nc2c(CC3CCCC3)[nH]c(-c3ccc(O)cc3)cn1-2 [hcp-CTZ, hcp-coelenterazine] tested with Mutant Aequorin AM20 (Aequorea victoria, UniProt P02592, H34Q/K37A/N33D/S39T/V32K).
# output 187
